- Run Description: in vivo
- Condition Description: rat, blood and urine, po, 100 mg/kg
Endpoint Label: CL renal (mL/min/kg)

mol=CN(C)C(=N)N=C(N)N endpoint_label="CL renal" observed=40.3

---

- Run Description: in vivo
- Condition Description: rat, blood, po, 100 mg/kg
Endpoint Label: CL/F (mL/min/kg)

mol=CN(C)C(=N)N=C(N)N units_of_measure=mL/min/kg observed=54.3

---

- Run Description: in vivo
- Condition Description: rat, blood, po, 100 mg/kg
Endpoint Label: AUC(0-t) (ng·h/mL)

mol=CN(C)C(=N)N=C(N)N observed=29000

---

- Run Description: in vivo
- Condition Description: rat, blood, po, 100 mg/kg
Endpoint Label: Cmax (ng/mL)

mol=CN(C)C(=N)N=C(N)N endpoint_label=Cmax units_of_measure=ng/mL observed=7650

---

- Run Description: in vivo
- Condition Description: rat, blood, po, 100 mg/kg
Endpoint Label: Tmax (h)

mol=CN(C)C(=N)N=C(N)N endpoint_label=Tmax observed=1.5
